# target: UniProtKB P35372
# Sequence (P35372 whole entry): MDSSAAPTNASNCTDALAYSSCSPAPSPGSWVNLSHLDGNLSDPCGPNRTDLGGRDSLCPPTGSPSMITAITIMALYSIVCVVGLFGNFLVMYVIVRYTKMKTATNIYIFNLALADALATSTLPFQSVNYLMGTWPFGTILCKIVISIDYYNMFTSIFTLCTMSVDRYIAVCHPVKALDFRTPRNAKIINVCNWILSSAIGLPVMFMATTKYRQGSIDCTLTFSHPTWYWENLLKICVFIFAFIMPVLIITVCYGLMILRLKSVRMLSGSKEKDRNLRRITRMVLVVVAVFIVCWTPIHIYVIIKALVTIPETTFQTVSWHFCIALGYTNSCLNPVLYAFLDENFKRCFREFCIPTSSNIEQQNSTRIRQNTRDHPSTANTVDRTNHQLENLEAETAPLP
outcome.measure: Ki (µM)

[[record]]
molecule = "COC(=O)[C@@H]1C[C@H](OC(C)=O)C(=O)[C@H]2[C@@]1(C)CC[C@H]1C(=O)OC(/C=C\\c3ccoc3)C[C@]21C (stereo partly shown)"
numeric_value = 2.6

